test-system: cynomolgus BCMA-Fc (cynomolgus)
Sequence (chain, as listed by the source): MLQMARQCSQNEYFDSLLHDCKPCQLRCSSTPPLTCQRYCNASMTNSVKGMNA
protocol-description: SPR, 25C
pKd: −log10 of the molar value.
# maps each entry to its pKd
experimental-readout: pKd

>>> reported_measurement("P1AG5072 (54_VH1b/VL1a) (antibody, V domains shown) VH: EVQLVESGGGLVKPGGSLRLSCAASGFTFSNAWMDWVRQAPGKGLEWIAQITAKSNNYATYYAAPVKGRFTISRDDSKNTLYLQMNSLKTEDTAVYYCTDDGYHWGQGTLVTVSS VL: AIQMTQSPSSLSASVGDRVTITCRASEDIRNGLAWYQQKPGKAPKLLIYNANSLHTGVPSRFSGSGSGTDFTLTISSLQPEDFATYYCEDTSKYPYTFGQGTKLEIK")
8.49
>>> reported_measurement("P1AG5007 (E04_VH1a/VL1e) (antibody, V domains shown) VH: QVQLVQSGAEVKKPGASVKVSCKASGYTFTNYWMHWVRQAPGQGLEWMGIIHPNSGSTNYNEKFQGRVTMTRDTSTSTVYMELSSLRSEDTAVYYCARGIYDYPFAYWGQGTLVTVSS VL: DIQMTQSPSSLSASVGDRVTITCRASESVSIHGTHLMHWYQQKPGKAPKLLIYAASSLQSGVPSRFSGSGSGTDFTLTISSLQPEDFATYYCQQSIEDPYTFGGGTKVEIK")
7.92
>>> reported_measurement("P1AG5013 (54_VH2a/VL1a_L1_pGL) (antibody, V domains shown) VH: EVQLLESGGGLVQPGGSLRLSCAASGFTFSNAWMDWVRQAPGKGLEWVSQITAKSNNYATYYADSVKGRFTISRDNSKNTLYLQMNSLRAEDTAVYYCTDDGYHWGQGTLVTVSS VL: AIQMTQSPSSLSASVGDRVTITCRASEDIRNDLGWYQQKPGKAPKLLIYNANSLHTGVPSRFSGSGSGTDFTLTISSLQPEDFATYYCEDTSKYPYTFGQGTKLEIK")
8.72
>>> reported_measurement("P1AG5076 (E04_VH1b/VL1h) (antibody, V domains shown) VH: QVQLVQSGAEVKKPGASVKVSCKASGYTFTNYWMHWVRQAPGQGLEWMGIIHPNSGSTNYNEKFQGRVTMTVDKSTSTVYMELSSLRSEDTAVYYCARGIYDYPFAYWGQGTLVTVSS VL: DIQMTQSPSSLSASVGDRVTITCRASESVSIHGTHLMHWYQQKPGKAPKLLIYAASNLESGVPSRFSGSGSETDFTLTISSLQPEDFATYFCQQSIEDPYTFGGGTKVEIK")
7.64
>>> reported_measurement("P1AG5028 (54_VH2a/VL1a) (antibody, V domains shown) VH: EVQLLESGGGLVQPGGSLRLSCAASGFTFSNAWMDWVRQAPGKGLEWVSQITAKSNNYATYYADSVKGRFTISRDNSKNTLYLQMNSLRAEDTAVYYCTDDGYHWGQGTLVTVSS VL: AIQMTQSPSSLSASVGDRVTITCRASEDIRNGLAWYQQKPGKAPKLLIYNANSLHTGVPSRFSGSGSGTDFTLTISSLQPEDFATYYCEDTSKYPYTFGQGTKLEIK")
8.42
>>> reported_measurement("P1AG5004 (E04_VH1a/VL1b) (antibody, V domains shown) VH: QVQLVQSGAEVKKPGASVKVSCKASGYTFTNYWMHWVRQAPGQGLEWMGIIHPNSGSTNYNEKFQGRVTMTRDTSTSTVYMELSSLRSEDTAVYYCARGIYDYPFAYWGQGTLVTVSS VL: DIQMTQSPSSLSASVGDRVTITCRASESVSIHGTHLMHWYQQKPGKAPKLLIYAASNLESGVPSRFSGSGSETDFTLTISSLQPEDFATYYCQQSIEDPYTFGGGTKVEIK")
7.80
>>> reported_measurement("P1AG5062 (E04 parental) (antibody, V domains shown) VH: QVQLQQPGAELVKPGASVKLSCKASGYTFTNYWMHWVKQRPGQGLEWIGIIHPNSGSTNYNEKFKSKATLTVDKSSSTAYMQLSSLTSEDSAVYYCARGIYDYPFAYWGQGTLVTVSS VL: DIVLTQSPASLAVSLGQRATISCRASESVSIHGTHLMHWYQQKPGQPPKLLIYAASNLESGVPARFSGSGSETDFTLNIHPVEEEDAATYFCQQSIEDPYTFGGGTKLEIK")
7.48
>>> reported_measurement("P1AG5065 (54_VH1a_Y292D/VL1a_T699S) (antibody, V domains shown) VH: EVQLVESGGGLVKPGGSLRLSCAASGFTFSNAWMDWVRQAPGKGLEWVGQITAKSNNYATDYAAPVKGRFTISRDDSKNTLYLQMNSLKTEDTAVYYCTDDGYHWGQGTLVTVSS VL: AIQMTQSPSSLSASVGDRVTITCRASEDIRNGLAWYQQKPGKAPKLLIYNANSLHSGVPSRFSGSGSGTDFTLTISSLQPEDFATYYCEDTSKYPYTFGQGTKLEIK")
8.19
>>> reported_measurement("P1AG5027 (54_VH1b/VL1a_L1_pGL) (antibody, V domains shown) VH: EVQLVESGGGLVKPGGSLRLSCAASGFTFSNAWMDWVRQAPGKGLEWIAQITAKSNNYATYYAAPVKGRFTISRDDSKNTLYLQMNSLKTEDTAVYYCTDDGYHWGQGTLVTVSS VL: AIQMTQSPSSLSASVGDRVTITCRASEDIRNDLGWYQQKPGKAPKLLIYNANSLHTGVPSRFSGSGSGTDFTLTISSLQPEDFATYYCEDTSKYPYTFGQGTKLEIK")
8.92
>>> reported_measurement("P1AG5026 (E04_VH1b/VL1a) (antibody, V domains shown) VH: QVQLVQSGAEVKKPGASVKVSCKASGYTFTNYWMHWVRQAPGQGLEWMGIIHPNSGSTNYNEKFQGRVTMTVDKSTSTVYMELSSLRSEDTAVYYCARGIYDYPFAYWGQGTLVTVSS VL: DIQMTQSPSSLSASVGDRVTITCRASESVSIHGTHLMHWYQQKPGKAPKLLIYAASNLESGVPSRFSGSGSGTDFTLTISSLQPEDFATYYCQQSIEDPYTFGGGTKVEIK")
7.48
